Recorded measurements of pIC50, one per entry
# System: pancreatic cancer cell line (BXPC3)
# RUN DESCRIPTION: tumor cell proliferation inhibition (CTG), pancreatic cancer cell line
# Type: cell-based
# CONDITION NOTES: Homo sapiens, BXPC-3, 72 hours
pIC50: −log10 of the molar value.

Past entries and their recorded results:
{"columns": ["COMPOUND", "pIC50"],
 "data": [
  ["CNC(=O)c1cc(Oc2ccc(NC(=O)Nc3ccc(Cl)c(C(F)(F)F)c3)c(F)c2)ccn1 [Regorafenib, regorafenib, reference compound]", "< 5.00"],
  ["NC(=O)c1cc2c(Oc3c(F)cc(NC(=O)NC4CC4)c(Cl)c3F)ccnc2cc1OCC(F)F [IIIb-56]", "> 5.30"],
  ["COc1cc2nccc(Oc3c(F)cc(NC(=O)NC4CC4)c(Cl)c3F)c2cc1C(=O)N[C@@H](C)CO [IIIb-18]", "< 5.00"]
]}

// returns reported pIC50 for input COc1cc2nccc(Oc3c(F)cc(NC(=O)NC4CC4)c(Cl)c3F)c2cc1C(=O)Nc1cnn(C)c1 [IIIb-53]
< 5.00

* * *

Items are presented alongside their recorded IC50.
# Test system: hepatocellular carcinoma cell line (Hep3B 2.1-7)
# RUN DESCRIPTION: tumor cell proliferation inhibition (CTG), hepatocellular carcinoma cell line
# Format: cell-based
# CONDITION NOTES: Homo sapiens, 72 hours

For orientation, consider the following solved cases.
{"columns": ["COMPOUND", "VAL"],
 "data": [
  ["CNC(=O)c1cc(Oc2ccc(NC(=O)Nc3ccc(Cl)c(C(F)(F)F)c3)c(F)c2)ccn1 [Regorafenib, regorafenib, reference compound]", "> 5 µM"],
  ["COc1cc2nccc(Oc3c(F)cc(NC(=O)NC4CC4)c(Cl)c3F)c2cc1C(=O)NCC(F)F", "< 2.5 µM"],
  ["COc1cc2nccc(Oc3ccc(NC(=O)NC4CC4)c(Cl)c3)c2cc1C(N)=O [Lenvatinib, lenvatinib, reference compound]", "> 5 µM"],
  ["COc1cc2nccc(Oc3c(F)cc(NC(=O)NC4CC4)c(Cl)c3F)c2cc1C(=O)NCC(F)(F)F", "< 2.5 µM"],
  ["NC(=O)c1cc2c(Oc3c(F)cc(NC(=O)NC4CC4)c(Cl)c3F)ccnc2cc1OCC1(N)CC1", "< 2.5 µM"],
  ["N#CCCOc1cc2nccc(Oc3c(F)cc(NC(=O)NC4CC4)c(Cl)c3F)c2cc1C(N)=O", "< 2.5 µM"],
  ["NC(=O)c1cc2c(Oc3c(F)cc(NC(=O)NC4CC4)c(Cl)c3F)ccnc2cc1OCC(F)F", "< 2.5 µM"],
  ["COc1cc2nccc(Oc3c(F)cc(NC(=O)NC4CC4)c(Cl)c3F)c2cc1C(=O)NCCC#N", "< 2.5 µM"],
  ["COc1cc2nccc(Oc3c(F)cc(NC(=O)NC4CC4)c(Cl)c3F)c2cc1C(=O)NCCF", "2.5 to 5 µM"],
  ["NC(=O)c1cc2c(Oc3c(F)cc(NC(=O)NC4CC4)c(Cl)c3F)ccnc2cc1OCCF", "< 2.5 µM"]
]}

Report IC50 for N#CCOc1cc2nccc(Oc3c(F)cc(NC(=O)NC4CC4)c(Cl)c3F)c2cc1C(N)=O please.
< 2.5 µM

What measured IC50 goes with COc1cc2nccc(Oc3c(F)cc(NC(=O)NC4CC4)c(Cl)c3F)c2cc1C(=O)NC[C@@H](O)CO ?
2.5 to 5 µM

Need IC50 of NC(=O)c1cc2c(Oc3c(F)cc(NC(=O)NC4CC4)c(Cl)c3F)ccnc2cc1OCCO , thanks.
< 2.5 µM

Reported IC50, compound NC(=O)c1cc2c(Oc3c(F)cc(NC(=O)NC4CC4)c(Cl)c3F)ccnc2cc1OCC(F)(F)F : ____
< 2.5 µM

Which IC50 is listed for COc1cc2nccc(Oc3c(F)cc(NC(=O)NC4CC4)c(Cl)c3F)c2cc1C(=O)NCC#N ?
< 2.5 µM
